NADPH fluorescence slope: recorded values
molecular target: Voltage-gated potassium channel subunit beta-2 (Rattus norvegicus) (UniProt P62483); assay: enhancers of rat Kvbeta2 NADPH turnover – biochemical, NADPH fluorescence, primary screen (AID 623); conditions: Recombinant KvBeta, NADPH fluorescence decrease slope, 10 min; at 10 µM; stronger effect = lower value;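 note: fluorescence intensity change per second fitted from 20 to 320 s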
Sequence (P62483 whole entry, looked up): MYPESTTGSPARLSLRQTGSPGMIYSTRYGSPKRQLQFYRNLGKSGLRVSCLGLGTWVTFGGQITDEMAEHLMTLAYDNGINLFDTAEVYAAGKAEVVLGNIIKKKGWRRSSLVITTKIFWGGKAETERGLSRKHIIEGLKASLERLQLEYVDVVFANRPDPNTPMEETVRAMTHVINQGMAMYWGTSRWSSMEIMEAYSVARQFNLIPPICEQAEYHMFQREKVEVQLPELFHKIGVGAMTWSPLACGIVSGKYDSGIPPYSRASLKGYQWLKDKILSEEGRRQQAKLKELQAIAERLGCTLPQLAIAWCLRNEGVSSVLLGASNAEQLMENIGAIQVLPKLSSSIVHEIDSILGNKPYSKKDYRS
Lab note: record just the number, no unit beside it.

The compound listed as `COCCn1cc(C(=O)NCCCN2CCC(C)CC2)c2c3ccccc3n(C)c2c1=O` shows NADPH fluorescence slope equal to -5.2e-05

The compound listed as CCC(C)NC(=O)CSC1=Nc2ccccc2C2=NC(CC(=O)NCc3ccccc3)C(=O)N12 (stereo unspecified) shows NADPH fluorescence slope equal to -1.4e-05

The compound listed as `O=C(/C=N/O)Nc1cccnc1` shows NADPH fluorescence slope equal to -2.2e-05

The compound listed as `CCOc1ccc(C(=O)Cc2ccc3oc(C(=O)O)cc3c2)c(O)c1` shows NADPH fluorescence slope equal to -4.9e-05

The compound listed as `CCCn1c(N2CCN(CC(=O)Nc3ccc4c(c3)OCCO4)CC2)nc2ccccc21` shows NADPH fluorescence slope equal to -0.000207

Continuing:
The compound listed as `CCC(=O)c1ccc(OCC(=O)N2CCc3cc(OC)c(OC)cc3C2)cc1` shows NADPH fluorescence slope equal to -4.3e-05

The compound listed as `O=C(COc1ncnc2ccccc12)NCc1ccc2c(c1)OCO2` shows NADPH fluorescence slope equal to -5e-06

The compound listed as COc1ccccc1NC(=O)N1CCCC1C(=O)NC1CCCCC1 (stereo unspecified) shows NADPH fluorescence slope equal to -2.2e-05

The compound listed as CC1CCCC(C(=O)OCc2ccccc2)N1 (stereo unspecified) shows NADPH fluorescence slope equal to 3.2e-05

The compound listed as `CCOC(=O)CNC(=O)CSc1ncnc2c1cnn2-c1ccccc1` shows NADPH fluorescence slope equal to 3.9e-05

The compound listed as COc1ccc(CC(=O)OCc2nnc(C3COc4ccccc4O3)o2)cc1OC (stereo unspecified) shows NADPH fluorescence slope equal to 1.8e-05

###

assay: inhibitors of TNFa-induced NFkB p65 translocation, primary screen, imaging, HUVEC, MLSMR starter and 10KST1 sets (AID 438); settings: HUVEC TNFa-induced p65 nuclear translocation; measured here: nuclei count (cytotoxicity indicator), at 2.08 µM;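 note: compound added about 3h40 before a 20 min TNFalpha stimulation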
cell count: recorded values
Lab note: record just the number, no unit beside it.

Recorded cell count, per entry:
The molecule listed as CCOC(=O)C1CCCN(c2nc3ccccc3nc2C(C#N)C(=O)NCc2ccccc2)C1 (stereo unspecified) shows cell count equal to 703

The molecule listed as `O=c1c2nnn(Cc3ccccc3)c2ncn1-c1ccccc1` shows cell count equal to 522

The molecule listed as `COc1cccc(-c2cc(C(=O)N3CCCc4ccccc43)no2)c1` shows cell count equal to 406

The molecule listed as `CC(=O)c1cc(-c2ccccc2)n(CC(=O)N2CCC(N3CCCCC3)CC2)c1C` shows cell count equal to 263

The molecule listed as CC(Sc1nnc(-c2cc3ccccc3o2)n1-c1ccccc1)C(=O)O (stereo unspecified) shows cell count equal to 613

Continuing:
The molecule listed as CCN(CC)C(=O)C1=C(C)NC(=O)NC1c1c(F)cccc1Cl (stereo unspecified) shows cell count equal to 410

The molecule listed as COc1ccc(C(C(C(=O)c2cccs2)N2CCOCC2)N2CCOCC2)cc1OC (stereo unspecified) shows cell count equal to 704

The molecule listed as CCNC(=O)CC1C(=O)N(c2ccccc2)C(=O)N1Cc1ccc(OC)cc1 (stereo unspecified) shows cell count equal to 442

The molecule listed as `COC(=O)Nc1ccc(S(=O)(=O)N2CCN(c3ccc(F)cc3)CC2)cc1` shows cell count equal to 381

The molecule listed as `COc1cccc(Oc2ccc(N)cc2)c1` shows cell count equal to 716

The molecule listed as `O=C(Nc1nccs1)c1ccc(Cl)c(S(=O)(=O)N2CCCCC2)c1` shows cell count equal to 355
